- test-method-notes: NCI Yeast Anticancer Drug Screen. Data for the mec2-1 strain (AID 157)
- measurement-context: S. cerevisiae mec2-1 strain, at 50.0 µM
This is part of a sample that, as a whole, favours compounds with a hit. Of some 79,000 tested, about 15% had one in any assay. Active and inactive are the calls of the source. No stated cut-off is given here; in the data, active means growth inhibition above about 70%; inactive means the rest.
One label from this list, please: active, inactive

Before answering, review these 5 worked examples.
CN1C(=O)CCC2[C@@H]3CC=C4C[C@@H](O)CC[C@]4(C)C3CC[C@@]21C (stereo partly specified) : inactive
CCCCC1(CC)COC(c2ccccc2OC)OC1 (stereo unspecified) : inactive
CSC(=S)n1nc(-c2ccccc2)c(N=Nc2ccc(Br)cc2)c1-c1ccccc1 : inactive
CC/C=C(\C)CC(C)O (stereo unspecified) : inactive
CCOC1(OCC)C(C)C(c2ccccc2)C(c2ccccc2)C1C (stereo unspecified) : active

Per the records of this test, what outcome belongs to CCOC(=O)C1=C(c2ccccc2)OC(N)=C(C#N)C1c1ccc(C)cc1 (stereo unspecified) ?
active

====

- test-method-notes: NCI Yeast Anticancer Drug Screen. Data for the mec2-1 strain (AID 157)
- measurement-context: S. cerevisiae mec2-1 strain, at 50.0 µM (retest, dose inferred, filed as 5.0)
- Description: Growth inhibition of yeast strains with defined genetic alterations is measured as a screen for potential anti-cancer activity. Selected strains with alterations in DNA damage repair or cell cycle control were exposed to compounds and growth inhibition was measured relative to vehicle treated controls. The strain used in this assay is mec2-1
The panel holds about 79,000 compounds, 15% with a hit somewhere; the sample as a whole holds those more often. Activity calls are given as the source filed them. No stated cut-off is given here; in the data, active means growth inhibition above about 70%; inactive means the rest.
One label from this list, please: Y (active), N (inactive)

Before answering, review these 4 worked examples.
COc1ccc(C(=O)C(C(c2ccccc2)N2CCc3ccccc3C2)N2CCc3ccccc3C2)cc1 (stereo not given) : N
Cc1c2cnccc2c(C)c2c1c1ccccc1n2CCOC(=O)c1ccccc1 : Y
CSC(SC)=C1C(=O)NC(Cc2ccccc2)C1=O (stereo not given) : N
N[C@@H]1CCCC[C@@H]1N.O=C([O-])CN(CP(=O)([O-])[O-])CP(=O)([O-])[O-].[Pt+2] : Y

Per the records of this test, what outcome belongs to Cc1ccc(NC2=CC(=O)C(NO)c3ccccc32)cc1 (stereo not given) ?
N

====

- test-method-notes: NCI Yeast Anticancer Drug Screen. Data for the cln2 rad14 strain (AID 165);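 further: 0% = growth equal to vehicle treated cultures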
- measurement-context: S. cerevisiae cln2 rad14 strain, at 50.0 µM (retest, dose inferred, filed as 5.0), active compounds read high
About 79,000 compounds went through this panel and 15% of them were active in at least one assay; those are over-represented in the sample as a whole.
observed-property: growth inhibition (%)
Give just the numeric value; % need not be written.

Completed entries (count: 10):
CN(C)CC[N+](C)(C)Cc1ccc(C[N+](C)(C)CC[N+](C)(C)Cc2ccc(CCl)cc2)cc1 : 2
CCS(=O)(=O)OC(C)CCl (configuration not stated) : 2
O=c1c2ccccc2c2ccccc2n1O : 89
CCCSc1n[nH]c(=S)s1 : 29
OC(CBr)c1cc(-c2ccccc2)nc2ccccc12 (configuration not stated) : 93
COc1cc2c(cc1OC(C)=O)C(=O)C(Br)(Br)CCC2 : 98
COC1=C(Br)C(=O)N/C1=C(\OC)c1ccccc1 : 0
COc1c(C(=O)/C(=N/Nc2ccccc2)C(C)=O)c(O)c(OC)c2occc12 : 91
COc1ccc(-c2cc(-c3ccc(OC)cc3OC)[n+](C)c(-c3ccc(OC)cc3OC)c2)cc1 : 98
O=C1C(Cl)=C(N2C(=O)CCCC2=O)C(=O)c2ccccc21 : 99

Which growth inhibition value belongs to `O=C1C=C/C(=C(/c2ccc(O)c(O)c2)c2ccccc2S(=O)(=O)O)C=C1O` ?
-2

Try the compound `Nc1ccccc1C(=O)NCCc1c[nH]c2ccccc12`
27
